The measurements presented in this section are drawn from ChEMBL document CHEMBL2406929.

- method: Effect on total ATP level in human Friedreich's ataxia lymphocytes at 25 uM after 48 hrs by bioluminescence assay relative to control
- Assay type: functional
For each of the compounds below, state its Activity.
The response must be a number in % with no trailing unit.

Entry CCCCCCCCCCCCCCc1nc(N(C)C)nc(OC)c1O ; Activity = 55

Entry COc1nc(N(C)C)nc(CCCCCCCCCCOCC23CC4CC(CC(C4)C2)C3)c1O ; Activity = 72

Entry Cc1nc(N(C)C)nc(CCCCCCCCCCO)c1O ; Activity = 28

Entry CCCCCCCCCCCCCCCCc1nc(N(C)C)nc(OC)c1OC(C)=O ; Activity = 92

Entry CCCCCCCCCCc1nc(N(C)C)nc(OC)c1O ; Activity = 58

Entry CCCCCCCCCCCCCCCCCCc1nc(N(C)C)nc(OC)c1O ; Activity = 102

Entry COC1=C(OC)C(=O)C(CCCCCCCCCCO)=C(C)C1=O [IDEBENONE] ; Activity = 3

Entry CCCCCCCCCCC1=C(C)C(=O)C(OC)=C(OC)C1=O [DECYLUBIQUINONE] ; Activity = 63

Entry CCCCCCCCCCCCCCCCc1nc(N(C)C)nc(OC)c1O ; Activity = 80

Entry COc1nc(N(C)C)nc(CCCCCCCCCCO)c1O ; Activity = 46

====

- method: Cytoprotective activity against BSO-induced cell death in human Friedreich's ataxia fibroblasts preincubated for 12 hrs prior to BSO-treatment measured after 48 hrs by luminescence assay
For each of the compounds below, state its pEC50.
Kindly note that pEC50 refers to -log10 of the concentration in mol/L and answer with the value alone.

Entry CCCCCCCCCCc1nc(N(C)C)nc(OC)c1O ; pEC50 = 7.17

Entry COc1nc(N(C)C)nc(CCCCCCCCCCO)c1O ; pEC50 = 6.46

Entry CCCCCCCCCCCCCCc1nc(N(C)C)nc(OC)c1O ; pEC50 = 7.66

Entry CCCCCCCCCCCCCCCCc1nc(N(C)C)nc(OC)c1O ; pEC50 = 7.60

Entry COc1nc(N(C)C)nc(CCCCCCCCCCOCC23CC4CC(CC(C4)C2)C3)c1O ; pEC50 = 7.49

Entry Cc1nc(N(C)C)nc(CCCCCCCCCCO)c1O ; pEC50 = 6.34

Entry CCCCCCCCCCC1=C(C)C(=O)C(OC)=C(OC)C1=O ; pEC50 = 7.25

Entry CCCCCCCCCCCCCCCCCCc1nc(N(C)C)nc(OC)c1O ; pEC50 = 6.58

Entry COC1=C(OC)C(=O)C(CCCCCCCCCCO)=C(C)C1=O ; pEC50 = 6.26
